Test system: Leishmania donovani
Assay Overview: Antileishmanial activity against Leishmania donovani MHOM/IN/00/DEVI promastigotes measured after 72 hrs by MTT assay
Format: functional, organism-based
Property Label: log10 IC50 (log10 of the value in µM)
All values: base-10 log of IC50 in µM.

Sure, the documented log10 IC50 for COc1cccc(C#Cc2c([N+](=O)[O-])nc3n2CC(C)O3)c1 (stereo not given) is 0.20

// field: log10 IC50; key: CC1Cn2c(nc([N+](=O)[O-])c2Br)O1 (stereo not given) ; value = 0.83

So, CC1Cn2c(nc([N+](=O)[O-])c2C#Cc2cccc(N)c2)O1 (stereo not given) ? Its log10 IC50 was 0.54

response.value for CC1Cn2c(nc([N+](=O)[O-])c2C#Cc2ccccc2)O1 (stereo not given) (field: log10 IC50) = 0.32

The compound identified as CC1Cn2c(nc([N+](=O)[O-])c2C#CC2CC2)O1 (stereo not given) registered its log10 IC50 at 0.66

# log10 IC50 of C[C@@H]1[C@H](O)[C@@H](C)/C=C/C=C/C=C/C=C/C=C/C=C/C=C/[C@H](O[C@@H]2O[C@H](C)[C@@H](O)[C@H](N)[C@@H]2O)C[C@@H]2O[C@](O)(C[C@@H](O)C[C@@H](O)[C@H](O)CC[C@@H](O)C[C@@H](O)CC(=O)O[C@H]1C)C[C@H](O)[C@H]2C(=O)O = -0.74

###

Assay Overview: Selectivity index, ratio of CC50 for CHO cells to IC50 for antileishmanial activity against Leishmania donovani MHOM/IN/00/DEVI promastigotes
Type: toxicity
Run Conditions: hamster, read-out: Ratio CC50/IC50
For each entry below, report its selectivity ratio value.
I'd appreciate a reply containing only the number, no unit.

Reported selectivity ratio ( Cc1ccc(C#Cc2c([N+](=O)[O-])nc3n2CC(C)O3)cc1 (centres undefined) ) = 3.3

Entry CC1Cn2c(nc([N+](=O)[O-])c2Br)O1 (centres undefined) , selectivity ratio reported as 1.4

Lab note: COc1cccc(C#Cc2c([N+](=O)[O-])nc3n2CC(C)O3)c1 (centres undefined) gave selectivity ratio of 8.1

CC1Cn2c(nc([N+](=O)[O-])c2C#Cc2cccc(N)c2)O1 (centres undefined) yielded selectivity ratio of 5.2

For reference, reported selectivity ratio for CC1Cn2c(nc([N+](=O)[O-])c2C#Cc2ccc(C(C)(C)C)cc2)O1 (centres undefined) stands at 10.8

// field: selectivity ratio; key: CC1Cn2c(nc([N+](=O)[O-])c2C#Cc2ccc(CO)cc2)O1 (centres undefined) ; value = 2.1

Sure, the documented selectivity ratio for CC1Cn2c(nc([N+](=O)[O-])c2C#CC2CC2)O1 (centres undefined) is 1.4

Consider CC1Cn2c(nc([N+](=O)[O-])c2C#Cc2ccccc2)O1 (centres undefined) . Its measured selectivity ratio is 1.7

###

Assay Overview: Selectivity index, ratio of CC50 for CHO cells to IC50 for antitrypanosomal activity against Trypanosoma cruzi CL amastigotes overexpressing tdTomato red fluorescent protein infected in gamma-irradiated African green monkey Vero cells
Assay type: toxicity
Run Conditions: Chinese hamster, read-out: Ratio CC50/IC50
Kindly state selectivity ratio for each of the entries shown.
Returns: the value as a bare number; no unit string appended.

selectivity ratio reading for CC1Cn2c(nc([N+](=O)[O-])c2C#Cc2ccc(CO)cc2)O1 (configuration not stated) : 5.4

The reported value for CC1Cn2c(nc([N+](=O)[O-])c2C#Cc2cccc(N)c2)O1 (configuration not stated) in terms of selectivity ratio is 5

// Cc1ccc(C#Cc2c([N+](=O)[O-])nc3n2CC(C)O3)cc1 (configuration not stated) : selectivity ratio value = 2.5

Measured selectivity ratio of CC1Cn2c(nc([N+](=O)[O-])c2C#Cc2ccccc2)O1 (configuration not stated) : 2.4

For reference, reported selectivity ratio for CC1Cn2c(nc([N+](=O)[O-])c2C#CC2CC2)O1 (configuration not stated) stands at 1.6

Please fill in: selectivity ratio reported for COc1cccc(C#Cc2c([N+](=O)[O-])nc3n2CC(C)O3)c1 (configuration not stated) = 14

The value of selectivity ratio measured for the molecule CC1Cn2c(nc([N+](=O)[O-])c2C#Cc2ccc(C(C)(C)C)cc2)O1 (configuration not stated) turned out to be 2.3
